Source listed as the supplement of paper PMC9428881.

For each record, write down the corresponding background-corrected fluorescence.
# METHOD SUMMARY: background-corrected fluorescence of 3'-dye-labeled ssDNA relative to brightest sequence (3'-GCGCG) (fraction); higher = brighter dye fluorescence (less quenching)
# STATED CONDITIONS: dye: Cy3 (3' terminal)

Reported background-corrected fluorescence for TTTTTGCATGATCATCATGCTTTTTTTTTTTTTTTTCGGA [AGGCT] was 0.734

response.value for TTTTTTGCGCAGCATCATGCTTTTTTTTTTTTTTTATTGA [AGTTA] (field: background-corrected fluorescence) = 0.643

// TTTTTTGATCATCAGCAGCATTTTTTTTTTTTTTTCGGTT [TTGGC] : background-corrected fluorescence value = 0.545

Entry TTTTTTGATGATGATGATGCTTTTTTTTTTTTTTTCCCCA [ACCCC] ; background-corrected fluorescence = 0.423

background-corrected fluorescence measured on "TTTTTTGCTGCGCATGCTGCTTTTTTTTTTTTTTTAATAA" = 0.578

====

# METHOD SUMMARY: background-corrected fluorescence of 3'-dye-labeled ssDNA relative to brightest sequence (3'-GCGCG) (fraction); higher = brighter dye fluorescence (less quenching)
# STATED CONDITIONS: dye: Cy5 (3' terminal)
REPORTED METRIC: background-corrected fluorescence
Just the number, please.

Value of background-corrected fluorescence reported for the sequence TTTTTTGATGATCATCATCATTTTTTTTTTTTTTTCCGGG [GGGCC] is 0.655

In plain terms, TTTTTTCATGAGCATGATGATTTTTTTTTTTTTTTGCTCC [CCTCG] has a documented background-corrected fluorescence of 0.286

TTTTTTGCTGCGCAGCATGCTTTTTTTTTTTTTTTAATTA [ATTAA] yielded background-corrected fluorescence of 0.43

Given item TTTTTGCATGCTGATGATCATTTTTTTTTTTTTTTTACCG [GCCAT] , the value recorded as its background-corrected fluorescence is 0.439

Looking up TTTTTGCATGATGCTCATGCTTTTTTTTTTTTTTTTCAGA [AGACT] , I found its background-corrected fluorescence recorded as 0.531

Query "TTTTTTGAGCATCAGCATGATTTTTTTTTTTTTTTCTGTC" yields background-corrected fluorescence of 0.352

Briefly, background-corrected fluorescence measured for TTTTTTCATGCTGCGCATCATTTTTTTTTTTTTTTGAATG [GTAAG] : 0.367

Form: sequence = TTTTTTGAGCATCAGCAGCATTTTTTTTTTTTTTTCTGTT [TTGTC] ; background-corrected fluorescence = 0.411

TTTTTTGCTGATCATGCTGCTTTTTTTTTTTTTTTACGAA [AAGCA] yielded background-corrected fluorescence of 0.452

sequence TTTTTTCAGCATGCTGCTGATTTTTTTTTTTTTTTGTAAC [CAATG] , background-corrected fluorescence observed: 0.364

Note to self: background-corrected fluorescence recorded for TTTTTTGCTGCTGCGCATGATTTTTTTTTTTTTTTAAATC [CTAAA] was 0.306

"TTTTTTGCTGCGCATGCTGCTTTTTTTTTTTTTTTAATAA" has a reported background-corrected fluorescence of 0.446

For TTTTTTGAGCATGATGCTGCTTTTTTTTTTTTTTTCTCAA [AACTC] the sequence record lists background-corrected fluorescence as 0.395

background-corrected fluorescence reading for TTTTTGCATCAGCATGCTGATTTTTTTTTTTTTTTTGTAC [CATGT] : 0.344

background-corrected fluorescence for TTTTTGCAGCATGATCAGCATTTTTTTTTTTTTTTTTCGT [TGCTT] is 0.432

Looking up TTTTTTGATCAGCAGCAGCATTTTTTTTTTTTTTTCGTTT [TTTGC] , I see its background-corrected fluorescence listed as 0.393

Given item TTTTTTGCTGATCATCAGCATTTTTTTTTTTTTTTACGGT [TGGCA] , the value recorded as its background-corrected fluorescence is 0.565

The sequence listed as TTTTTTGAGCAGCAGCATCATTTTTTTTTTTTTTTCTTTG [GTTTC] shows background-corrected fluorescence equal to 0.343

Reported background-corrected fluorescence of TTTTTTCATGATGCTGCGCATTTTTTTTTTTTTTTGCAAT [TAACG] : 0.406

background-corrected fluorescence for TTTTTTGATGATGCGCATCATTTTTTTTTTTTTTTCCATG [GTACC] is 0.361

response.value for TTTTTTCATCATGATCATGCTTTTTTTTTTTTTTTGGCGA [AGCGG] (field: background-corrected fluorescence) = 0.618
